Data provenance: ChEMBL document CHEMBL2218924

biological target: Ribosomal protein S6 kinase alpha-6 (Homo sapiens); conditions: at 1 µM
QUANTITY: residual activity (%)
Unit % implied. Number only.

c1ccc(-c2cnc(Nc3ccc(OCCN4CCCC4)cc3)s2)cc1 | 72
CCN(CC)CCNC(=O)c1c(C)[nH]c(/C=C2\C(=O)Nc3ccc(Cl)cc32)c1C | 14
O=C1Nc2ccc(Cl)cc2/C1=C/c1cc(Cl)c(O)c(Cl)c1 | 77
O=c1cc(N2CCOCC2)oc2c1ccc1ccccc12 | 110

Here's the next entry for you.
Data request: Look up residual activity with Ribosomal protein S6 kinase alpha-6 (Homo sapiens) for this compound: O=C(NC(NC(=S)Nc1ccc(F)c([N+](=O)[O-])c1)C(Cl)(Cl)Cl)C(c1ccccc1)c1ccccc1 (stereo not given)
Data returned: 80

###

biological target: Tyrosine-protein kinase Fgr (Homo sapiens); conditions: at 1 µM
Each entry below carries its recorded residual activity.
Unit % implied. Number only.

The following molecules have reported results that may help.
CCCC(=O)Oc1ccc2[nH]c(C(=O)c3cc4ccccc4[nH]3)cc2c1 | 97
c1ccc(-c2cnc(Nc3ccc(OCCN4CCCC4)cc3)s2)cc1 | 63

Data request: Request the reported residual activity associated with "COc1ccc(CNC(=O)Nc2ncc([N+](=O)[O-])s2)cc1"
Data returned: 31

Data request: Request the reported residual activity associated with "Nc1n[nH]c2nc3ccccc3nc12"
Data returned: 100

Data request: Request the reported residual activity associated with "O=C1Nc2ccc(Cl)cc2/C1=C/c1cc(Cl)c(O)c(Cl)c1"
Data returned: 96

Data request: Request the reported residual activity associated with "COc1cc2ncnc(Nc3cccc(Cl)c3)c2cc1OC"
Data returned: 52

Data request: Request the reported residual activity associated with "CC(C)(C)n1nc(Cc2cccc3ccccc23)c2c(N)ncnc21"
Data returned: 35

Data request: Request the reported residual activity associated with "CCOC(=O)c1c(C)[nH]c(/C=C2\C(=O)Nc3ccccc32)c1C"
Data returned: 87

Data request: Request the reported residual activity associated with "N#Cc1c(NC(=O)c2cccc3ccccc23)sc2c1CCCC2"
Data returned: 99

Data request: Request the reported residual activity associated with "CN(C)S(=O)(=O)c1ccc2c(c1)/C(=C/c1cc3c([nH]1)CCCC3)C(=O)N2"
Data returned: 21

Data request: Request the reported residual activity associated with "O=C(CCCc1ccc(-c2ccccc2F)cc1)Nc1ccc(O)cc1"
Data returned: 93

###

target: PAS domain-containing serine/threonine-protein kinase (Homo sapiens) (UniProt Q96RG2); conditions: at 10 µM
Sequence (Q96RG2 whole entry, the tested form may be a part): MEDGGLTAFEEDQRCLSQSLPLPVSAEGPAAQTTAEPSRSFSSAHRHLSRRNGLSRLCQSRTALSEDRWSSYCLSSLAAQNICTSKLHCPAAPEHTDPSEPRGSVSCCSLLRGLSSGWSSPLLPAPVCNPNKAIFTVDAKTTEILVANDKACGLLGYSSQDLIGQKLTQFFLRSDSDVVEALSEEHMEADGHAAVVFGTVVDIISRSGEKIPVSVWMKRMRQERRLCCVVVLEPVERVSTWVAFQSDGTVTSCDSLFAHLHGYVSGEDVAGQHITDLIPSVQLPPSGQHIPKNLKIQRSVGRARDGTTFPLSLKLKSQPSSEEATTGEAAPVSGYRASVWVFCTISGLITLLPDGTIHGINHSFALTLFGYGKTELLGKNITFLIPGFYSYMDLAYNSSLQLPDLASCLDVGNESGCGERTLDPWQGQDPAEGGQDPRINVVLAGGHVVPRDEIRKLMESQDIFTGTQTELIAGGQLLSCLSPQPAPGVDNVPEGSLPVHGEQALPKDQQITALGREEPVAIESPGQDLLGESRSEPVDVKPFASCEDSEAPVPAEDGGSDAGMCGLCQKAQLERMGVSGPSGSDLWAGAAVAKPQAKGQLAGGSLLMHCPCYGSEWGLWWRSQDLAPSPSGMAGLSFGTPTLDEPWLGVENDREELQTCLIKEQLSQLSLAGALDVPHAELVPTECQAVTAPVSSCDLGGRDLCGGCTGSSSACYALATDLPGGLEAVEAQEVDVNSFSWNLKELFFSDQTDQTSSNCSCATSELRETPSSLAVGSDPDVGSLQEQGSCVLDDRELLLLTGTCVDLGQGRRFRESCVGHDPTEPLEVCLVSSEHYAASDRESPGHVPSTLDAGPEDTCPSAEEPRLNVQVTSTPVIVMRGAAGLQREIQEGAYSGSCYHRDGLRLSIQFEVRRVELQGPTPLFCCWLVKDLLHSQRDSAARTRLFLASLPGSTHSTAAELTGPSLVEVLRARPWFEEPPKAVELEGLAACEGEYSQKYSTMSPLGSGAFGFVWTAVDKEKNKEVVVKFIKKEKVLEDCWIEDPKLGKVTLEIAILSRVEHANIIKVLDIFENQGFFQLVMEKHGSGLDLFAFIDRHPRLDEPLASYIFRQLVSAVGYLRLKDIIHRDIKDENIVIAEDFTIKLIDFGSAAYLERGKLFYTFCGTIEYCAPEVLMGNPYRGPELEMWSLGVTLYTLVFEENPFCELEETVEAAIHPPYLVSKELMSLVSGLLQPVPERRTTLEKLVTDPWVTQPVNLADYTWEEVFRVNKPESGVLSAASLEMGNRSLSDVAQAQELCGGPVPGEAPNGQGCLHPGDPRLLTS
# residual activity binned as bottom range (below 50%), center range (50% to below 80%), top range (80% or more)

These recorded examples may help you get a feel for the data.
Nc1ncnc2c1c(-c1ccc(Oc3ccccc3)cc1)cn2C1CCCC1 | bottom range
O=C(NC(NC(=S)Nc1ccc(F)c([N+](=O)[O-])c1)C(Cl)(Cl)Cl)C(c1ccccc1)c1ccccc1 (centres undefined) | center range
O=C1C(Cl)=C(N2C(=O)CCC2=O)C(=O)c2ccccc21 | top range
O=C1NC(=O)c2c1c1c3ccccc3[nH]c1n1cncc21 | bottom range
O=c1cc(N2CCOCC2)oc2c(-c3ccccc3)cccc12 | center range
COc1ccc(Cl)cc1NC(=O)Nc1cc(C)nc2ccccc12 | bottom range
N#Cc1c(NC(=O)c2cccc3ccccc23)sc2c1CCCC2 | top range
O=C1NC(=O)C(c2c[nH]c3ccccc23)=C1c1c[nH]c2ccccc12 | bottom range
CC(C)(C)n1nc(Cc2cccc3ccccc23)c2c(N)ncnc21 | center range
CCOC(=O)c1c(C)[nH]c(/C=C2\C(=O)Nc3ccccc32)c1C | top range

Data request: Textbook exercise: identify the category of the compound given here, "N#C/C(=C\c1ccc(O)c(O)c1)C(=O)NCc1ccccc1" , according to its measured value.
Data returned: center range

Data request: Textbook exercise: identify the category of the compound given here, "COc1ccc(-c2cnc3c(-c4ccsc4)cnn3c2)cc1" , according to its measured value.
Data returned: top range

Data request: Textbook exercise: identify the category of the compound given here, "COc1ccc(CNC(=O)Nc2ncc([N+](=O)[O-])s2)cc1" , according to its measured value.
Data returned: top range

Data request: Textbook exercise: identify the category of the compound given here, "O=C1Nc2ccccc2/C1=C\c1c(Cl)[nH]c2ccccc12" , according to its measured value.
Data returned: center range

Data request: Textbook exercise: identify the category of the compound given here, "O=C(O)/C=C/c1cc(Br)c(Br)c(Br)c1Br" , according to its measured value.
Data returned: bottom range

Data request: Textbook exercise: identify the category of the compound given here, "c1ccc(-c2cnc(Nc3ccc(OCCN4CCCC4)cc3)s2)cc1" , according to its measured value.
Data returned: center range

Data request: Textbook exercise: identify the category of the compound given here, "Nc1ncnc2c1cnn2-c1ccccc1" , according to its measured value.
Data returned: top range

Data request: Textbook exercise: identify the category of the compound given here, "NC(=O)Nc1sc(-c2ccc(F)cc2)cc1C(N)=O" , according to its measured value.
Data returned: top range

Data request: Textbook exercise: identify the category of the compound given here, "COc1ccc2c(c1)c(C1=C(c3c[nH]c4ccccc34)C(=O)NC1=O)cn2CCCN(C)C" , according to its measured value.
Data returned: bottom range
